Molecular target: T1, human VTCN1 protein (Homo sapiens, UniProt Q7Z7D3)
T1 construct: His
T1 sequence (Q7Z7D3 25-282): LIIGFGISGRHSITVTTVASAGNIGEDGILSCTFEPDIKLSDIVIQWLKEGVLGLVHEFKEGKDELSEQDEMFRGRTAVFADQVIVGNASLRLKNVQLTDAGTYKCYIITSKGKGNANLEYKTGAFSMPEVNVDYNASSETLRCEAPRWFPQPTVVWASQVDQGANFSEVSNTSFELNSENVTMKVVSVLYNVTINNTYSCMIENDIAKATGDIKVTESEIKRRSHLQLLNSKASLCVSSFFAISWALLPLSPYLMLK
Experiment: Affinity to recombinant VTCN1-his by OCTET Red (Protein A biosensors)
Format: binding
Details: Table 5
Kon (human) for assorted molecules

3G10: mouse anti-human VTCN1 antibody; VH SEQ ID NO: 17, VL SEQ ID NO: 21 (antibody, V domains shown) VH: QIQLKESGPGLVQPSQSLSITCTVSGFSLTSYGVHWVRQSPGKGLEWLGVIWSGGYTDYNSAFISRLSISKDNSKSQVFFKMNSLQADDTAIYYCARDITTIVEGFAYWGQGTLVTVSA VL: IIVMTQSPKSMSMSVGERITLNCKASENVGTYVSWYQQKPEQSPKLLIYGASNRYTGVPDHFTGSGSATDFTLTISSVQAEDLADYHCGQTYSYPFTFGSGTKLEIK	1.07 × 10^6

Reported Kon (human) for 6E2: mouse anti-human VTCN1 antibody; VH SEQ ID NO: 33, VL SEQ ID NO: 37 (antibody, V domains shown) VH: QIQLQESGPGLVQPSQSLSITCTVSGFSLTSYGVQWVRQSPGKGLEWLGVIWSGGSTDYNAAFISRLSISKDNSKSQVFFKMNSLQADDTAIYYCARDISTIVEGFAHWGQGTLVTVSS VL: NIVMTQSPKSMSMSVGERVTLSCKASEKVGTYVSWYQQKPEQSPKLLIYGASNRYTGVPDRFTGSGSATDFTLTISSVQAEDLADYHCGQSYRYPFTFGSGTKLEIK was 9.41 × 10^5

Reported Kon (human) for 6D9: mouse anti-human VTCN1 antibody; VH SEQ ID NO: 113, VL SEQ ID NO: 117; 6D9 represents 6D9-mIgG2a if not otherwise specified (antibody, V domains shown, mouse anti-human VTCN1 antibody; 6D9 represents 6D9-mIgG2a if not otherwise specified) VH: QIQLQQSGPGLVQPSQSLSITCTVSGFSLTSYGVQWIRQSPGKGLEWLGVIWSSGSTDYNAAFLSRLSFSKDNSKSQVFFQMNSLQADDSAIYYCARDVTTIVEGFAHWGQGTLVTVSA VL: NIVMTQSPKSMSMSVGERVTLSCKASEKVGTYVSWYQQKPEQSPKLLIYGASNRYTGVPDRFTGSGSATDFTLTISSVQVEDLADYHCGQTYSYPFTFGSGTKLEIK was 6.19 × 10^5

Reported Kon (human) for 5A12: mouse anti-human VTCN1 antibody; VH SEQ ID NO: 105, VL SEQ ID NO: 109 (antibody, V domains shown) VH: QVQLQQSGPGLVQPSQSLSITCTVSGFSLTSYGVQWVRQSPGKGLEWLGVIWSSGSTDYNAAFISRLSINKDNSKSQVFFKMNSLQPDDTAIYYCARDITTIVEGFAYWGQGTLVTVSA VL: IIVMTQSPKSMSMSVGERVTLSCKASENVGTYVSWYQQKPEQSPKLLIYGASNRYTGVPDRFTGSGSATDFTLTISSVQAEDLADYHCGQSYSYPFTFGSGTKLEIK was 3.93 × 10^5

Reported Kon (human) for 7F10: mouse anti-human VTCN1 antibody; VH SEQ ID NO: 137, VL SEQ ID NO: 141 (antibody, V domains shown) VH: QVQLQQSGPGLVQPSQSLSITCTVSGFSLTSYGIHWVRQSPGKGLEWLGVIWSSGSTDYNAAFISRLSISKDNSKSQVFFKMNSLQSDDTAIHYCARDITTIAEGFAYWGQGTLVTVSA VL: NIVMTQSPKSMSMSVGERVTLSCKASENVGTYVSWYQQKPEQSPKLLIYGASNRYTGVPDRFTGSGSATDFTLTISSVQAEDLADYHCGQSYSYPFTFGSGTKLEIK was 1.15 × 10^6

Reported Kon (human) for 10D1: mouse anti-human VTCN1 antibody; VH SEQ ID NO: 57, VL SEQ ID NO: 61 (antibody, V domains shown) VH: QVQLQESGPELVKPGASVKLSCKASGYIFTDYTIHWLKQSPGQGLEWIGWIYPGSGHTHYNDKFKGKATMTADKSSTTAYMQLSSLTSEDSAVFFCARGGESITTVFPLAYWGQGTLVTVSA VL: DIVMSQSPSSLAVSVGEKVTMSCKSSQSLLYSSDQKNYLAWYQQKPGQSPKLLIYWASTWESGVPDRFIGSGSGTDFTLTVSSVKAEDLAVYYCHQYYSYPPTFGAGTKLEIK was 9.83 × 10^5
